Let's look at some molecules and their measured Ki.
ASSAYED TARGET: purified recombinant rat FAAH (Rattus norvegicus, UniProt P97612)
Construct: The truncated rat FAAH (rFAAH) was expressed in E. coli and purified as described; made in house; host or cells: Escherichia coli
Sequence (P97612 30-579 limits assumed): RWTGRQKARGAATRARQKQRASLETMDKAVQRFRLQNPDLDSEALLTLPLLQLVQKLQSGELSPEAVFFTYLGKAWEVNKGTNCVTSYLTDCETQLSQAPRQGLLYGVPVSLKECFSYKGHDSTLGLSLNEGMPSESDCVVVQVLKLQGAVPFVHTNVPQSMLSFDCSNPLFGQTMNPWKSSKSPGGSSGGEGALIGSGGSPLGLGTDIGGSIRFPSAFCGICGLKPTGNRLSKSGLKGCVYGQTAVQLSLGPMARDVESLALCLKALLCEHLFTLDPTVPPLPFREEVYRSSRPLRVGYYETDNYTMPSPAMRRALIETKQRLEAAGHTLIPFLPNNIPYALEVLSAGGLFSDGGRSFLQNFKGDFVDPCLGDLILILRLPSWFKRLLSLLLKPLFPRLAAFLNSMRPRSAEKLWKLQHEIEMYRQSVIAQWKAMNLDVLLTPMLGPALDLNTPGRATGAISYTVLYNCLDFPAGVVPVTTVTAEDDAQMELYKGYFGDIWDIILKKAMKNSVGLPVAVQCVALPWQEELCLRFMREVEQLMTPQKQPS
ASSAY DETAILS: FAAH inhibition enzyme assay (14C-oleamide hydrolysis, Dixon plot), rat enzyme
Assay type: biochemical
CONDITION SUMMARY: Table 3; rat FAAH; read-out: Ki, μM (rat)
Entry rule: numbers only, all in µM.

Use these answered entries as a reference point.
MOLECULE: O=C(CCCCCCc1ccccc1)c1noc(-c2ccccn2)n1 [10b]
SCALE UNIT: µM
Ki: 0.0011
--
MOLECULE: O=C(O)c1cccc(-c2nc(C(=O)CCCCCCc3ccccc3)no2)n1 [10g]
SCALE UNIT: µM
Ki: 0.053
--
MOLECULE: O=C(CCCCCCc1ccccc1)c1nnc(-c2ccccn2)o1 [8b]
SCALE UNIT: µM
Ki: 0.00029
--
MOLECULE: O=C(CCCCCCc1ccccc1)c1nnc(-c2ccccn2)s1 [12b]
SCALE UNIT: µM
Ki: 0.0008

query: Need Ki of O=C(CCCCCCc1ccccc1)c1nc(-c2ccccn2)no1 [9b] , thanks.
result: 0.00034

Source listed as patent US8987312B2.
